B1: tRNA (parent)
chain: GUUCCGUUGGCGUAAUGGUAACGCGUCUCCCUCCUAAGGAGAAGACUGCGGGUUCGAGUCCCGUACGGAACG

# Variants of: B1
# assay-details: yeast fitness relative to wild type (ratio to wild type); higher = fitter; tRNA-Arg(CCU), competitive growth, 37 C, YPD
Variants at the floor of the assay were thinned out.
measured-quantity: yeast fitness

Dear reader, for each entry below, please note its yeast fitness.
1. G25C U28C C62U A70C
2. A43G C49U C60A C62A

≤ 0.5
≤ 0.5

Value sought for every listed variant: yeast fitness.
1. A37G A65G
2. C22G U26G G44A C55G G63C
3. C11U A21U G68C
4. G44C C66U A70C

0.695
≤ 0.5
0.69
0.88

Please give yeast fitness for each item listed below.
1. C29U G38C U64C
2. C4U U16A A20G C66U
3. U7C C31G C34U C55U G58A C61U G68C
4. G23A U47C C49U
5. U3C C4G U8G A42G C62G A65C

["≤ 0.5", "≤ 0.5", "≤ 0.5", "≤ 0.5", "≤ 0.5"]
